# collection of pIC50 values tested on Androgen receptor (Homo sapiens, UniProt P10275)
# Sequence (P10275 whole entry): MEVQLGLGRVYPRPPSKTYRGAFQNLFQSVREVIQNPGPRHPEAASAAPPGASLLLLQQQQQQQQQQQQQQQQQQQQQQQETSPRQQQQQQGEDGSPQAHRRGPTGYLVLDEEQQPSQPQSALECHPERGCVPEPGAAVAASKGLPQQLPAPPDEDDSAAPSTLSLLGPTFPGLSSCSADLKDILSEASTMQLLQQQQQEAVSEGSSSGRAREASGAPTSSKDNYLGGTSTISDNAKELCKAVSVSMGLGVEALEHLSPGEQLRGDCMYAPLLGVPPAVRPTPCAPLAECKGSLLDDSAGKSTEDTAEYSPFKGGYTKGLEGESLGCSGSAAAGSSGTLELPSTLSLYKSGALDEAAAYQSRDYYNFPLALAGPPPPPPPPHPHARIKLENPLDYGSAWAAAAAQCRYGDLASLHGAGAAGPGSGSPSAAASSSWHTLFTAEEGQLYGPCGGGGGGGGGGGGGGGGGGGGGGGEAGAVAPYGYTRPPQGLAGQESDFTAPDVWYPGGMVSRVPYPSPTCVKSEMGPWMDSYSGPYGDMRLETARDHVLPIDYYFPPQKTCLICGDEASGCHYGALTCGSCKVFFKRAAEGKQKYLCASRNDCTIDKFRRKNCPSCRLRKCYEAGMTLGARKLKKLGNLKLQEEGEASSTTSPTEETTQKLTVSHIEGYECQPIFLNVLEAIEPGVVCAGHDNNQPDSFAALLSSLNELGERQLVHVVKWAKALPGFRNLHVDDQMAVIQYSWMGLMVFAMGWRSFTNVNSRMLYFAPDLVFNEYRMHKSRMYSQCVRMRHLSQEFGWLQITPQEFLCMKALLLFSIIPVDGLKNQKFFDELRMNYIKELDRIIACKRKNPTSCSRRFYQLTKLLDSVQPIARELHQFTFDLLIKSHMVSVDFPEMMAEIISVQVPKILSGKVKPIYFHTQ
pIC50: −log10 of the molar value.

{"Molecule": "CC(O)(CSc1cc(C(F)(F)F)cc(C(F)(F)F)c1)C(=O)Nc1ccc([N+](=O)[O-])c(C(F)(F)F)c1 (configuration not stated)", "Target Entity": "Androgen receptor (Homo sapiens, UniProt P10275)", "pIC50": 6.15}
{"Molecule": "CC(O)(CS(=O)(=O)c1cc(C(F)(F)F)cc(C(F)(F)F)c1)C(=O)Nc1ccc([N+](=O)[O-])c(C(F)(F)F)c1 (configuration not stated)", "Target Entity": "Androgen receptor (Homo sapiens, UniProt P10275)", "pIC50": 5.51}

====

Assay: Antiproliferative activity against human DU145 cells assessed as reduction in cell viability after 96 hrs by propidium iodide staining based fluorescence assay
Type: functional, DU-145
Conditions: Homo sapiens, DU-145, 96 h; read-out: IC50
// NB: equality with 8 µM counts as No; only IC50 strictly below is Yes

{"Molecule": "CC(O)(CS(=O)(=O)c1cc(C(F)(F)F)cc(C(F)(F)F)c1)C(=O)Nc1ccc(C#N)c(C(F)(F)F)c1 (stereo not drawn)", "Category": "Yes"}
{"Molecule": "CNC(=O)c1ccc(N2C(=S)N(c3ccc(C#N)c(C(F)(F)F)c3)C(=O)C2(C)C)cc1F [ENZALUTAMIDE]", "Category": "No"}
{"Molecule": "C[C@](O)(CSc1cc(C(F)(F)F)cc(C(F)(F)F)c1)C(=O)Nc1ccc(C#N)c(C(F)(F)F)c1", "Category": "Yes"}
{"Molecule": "CC(O)(CS(=O)(=O)c1ccccc1OC(F)(F)F)C(=O)Nc1cc(C(F)(F)F)cc(C(F)(F)F)c1 (stereo not drawn)", "Category": "No"}
{"Molecule": "CC(O)(CS(=O)(=O)c1cc(C(F)(F)F)cc(C(F)(F)F)c1)C(=O)Nc1ccc([N+](=O)[O-])cc1C(F)(F)F (stereo not drawn)", "Category": "Yes"}
{"Molecule": "CNC(=O)c1ccc(N2C(=S)N(c3cc(C(F)(F)F)cc(C(F)(F)F)c3)C(=O)C2(C)C)cc1", "Category": "No"}
{"Molecule": "CC(O)(CSc1cc(C(F)(F)F)cc(C(F)(F)F)c1)C(=O)Nc1ccc(C#N)cc1C(F)(F)F (stereo not drawn)", "Category": "No"}

====

Experiment: Antiproliferative activity against human DU145 cells assessed as reduction in cell viability after 96 hrs by propidium iodide staining based fluorescence assay
Format: functional, DU-145
Details: Homo sapiens, DU-145, 96 h; read-out: IC50

{"Compound": "CC(O)(CSc1ccccc1C(F)(F)F)C(=O)Nc1cc(C(F)(F)F)cc(C(F)(F)F)c1 (centres undefined)", "IC50": "8.66 µM"}
{"Compound": "CC(O)(CSc1cc(C(F)(F)F)cc(C(F)(F)F)c1)C(=O)Nc1ccc(C(F)(F)F)cc1 (centres undefined)", "IC50": "16.4 µM"}
{"Compound": "CC(O)(COc1cc(C(F)(F)F)cc(C(F)(F)F)c1)C(=O)Nc1ccc(C#N)c(C(F)(F)F)c1 (centres undefined)", "IC50": "4.7 µM"}
{"Compound": "CC(O)(CSc1cc(C(F)(F)F)cc(C(F)(F)F)c1)C(=O)Nc1ccc([N+](=O)[O-])cc1C(F)(F)F (centres undefined)", "IC50": "3.38 µM"}

====

inhibition at 25 µM listing for selected compounds.
Molecular target: hERG (KCNH2) (Homo sapiens, UniProt Q12809)
Sequence (Q12809 whole entry): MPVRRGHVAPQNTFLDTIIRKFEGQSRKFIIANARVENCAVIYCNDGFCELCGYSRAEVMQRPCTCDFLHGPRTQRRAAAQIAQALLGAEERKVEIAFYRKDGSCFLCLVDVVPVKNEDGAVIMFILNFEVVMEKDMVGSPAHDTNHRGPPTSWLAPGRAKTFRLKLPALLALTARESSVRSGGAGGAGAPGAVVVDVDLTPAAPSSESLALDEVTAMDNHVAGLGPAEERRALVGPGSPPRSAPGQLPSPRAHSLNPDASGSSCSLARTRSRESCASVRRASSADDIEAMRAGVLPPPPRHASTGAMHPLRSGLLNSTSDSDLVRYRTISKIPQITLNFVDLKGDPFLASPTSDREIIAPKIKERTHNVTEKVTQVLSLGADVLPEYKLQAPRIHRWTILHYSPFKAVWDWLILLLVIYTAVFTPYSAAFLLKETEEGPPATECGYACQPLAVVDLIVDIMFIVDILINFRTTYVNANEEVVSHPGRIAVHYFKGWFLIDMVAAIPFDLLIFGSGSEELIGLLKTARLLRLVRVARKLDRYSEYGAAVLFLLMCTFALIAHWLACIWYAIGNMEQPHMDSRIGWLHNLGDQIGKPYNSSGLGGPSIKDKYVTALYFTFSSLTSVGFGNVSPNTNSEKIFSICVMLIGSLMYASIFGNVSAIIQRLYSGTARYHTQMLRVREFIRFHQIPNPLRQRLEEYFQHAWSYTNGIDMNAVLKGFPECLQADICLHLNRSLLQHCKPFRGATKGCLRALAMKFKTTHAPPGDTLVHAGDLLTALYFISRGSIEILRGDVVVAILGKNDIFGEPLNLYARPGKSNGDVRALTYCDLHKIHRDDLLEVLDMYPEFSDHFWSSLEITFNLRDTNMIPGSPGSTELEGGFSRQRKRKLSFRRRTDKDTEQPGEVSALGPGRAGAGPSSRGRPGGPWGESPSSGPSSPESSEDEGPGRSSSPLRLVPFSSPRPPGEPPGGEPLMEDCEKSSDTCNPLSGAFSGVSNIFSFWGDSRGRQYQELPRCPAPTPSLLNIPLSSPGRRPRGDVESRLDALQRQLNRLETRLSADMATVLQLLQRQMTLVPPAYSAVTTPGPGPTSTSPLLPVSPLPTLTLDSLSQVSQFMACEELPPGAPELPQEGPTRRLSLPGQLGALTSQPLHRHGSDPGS
Experiment: Inhibition of human ERG transfected in CHO cells assessed as blockade of tail current at 25 uM by patch clamp assay
Type: cell-based
Conditions: CHO cells transfected with human ERG
Observation Type: inhibition at 25 µM (%)

{"Compound": "CC1(C)C(=O)N(c2ccc([N+](=O)[O-])cc2C(F)(F)F)C(=S)N1c1cc(C(F)(F)F)cc(C(F)(F)F)c1", "Observation Type": "inhibition at 25 µM", "Reported": 9.44}
{"Compound": "CC(O)(COc1cc(C(F)(F)F)cc(C(F)(F)F)c1)C(=O)Nc1ccc(C#N)c(C(F)(F)F)c1 (centres undefined)", "Observation Type": "inhibition at 25 µM", "Reported": 7.64}
{"Compound": "C[C@](O)(CS(=O)(=O)c1cc(C(F)(F)F)cc(C(F)(F)F)c1)C(=O)Nc1ccc(C#N)c(C(F)(F)F)c1", "Observation Type": "inhibition at 25 µM", "Reported": 29.3}
{"Compound": "CC(O)(CS(=O)(=O)c1ccccc1OC(F)(F)F)C(=O)Nc1cc(C(F)(F)F)cc(C(F)(F)F)c1 (centres undefined)", "Observation Type": "inhibition at 25 µM", "Reported": 13.4}

====

Experiment: Antiproliferative activity against human DU145 cells assessed as reduction in cell viability after 96 hrs by propidium iodide staining based fluorescence assay
Format: functional, DU-145
Settings: Homo sapiens, DU-145, 96 h; read-out: IC50
# key: entry, value: log10 of IC50
Observation Type: log10 of IC50 (log10 of the value in µM)

{"Compound": "C[C@](O)(CS(=O)(=O)c1cc(C(F)(F)F)cc(C(F)(F)F)c1)C(=O)Nc1ccc(C#N)c(C(F)(F)F)c1", "log10 of IC50": 0.80}
{"Compound": "CC(O)(COc1cc(C(F)(F)F)cc(C(F)(F)F)c1)C(=O)Nc1ccc([N+](=O)[O-])c(C(F)(F)F)c1 (stereo not given)", "log10 of IC50": 0.46}
{"Compound": "CC(O)(CS(=O)(=O)c1cccc(C(F)(F)F)c1)C(=O)Nc1cc(C(F)(F)F)cc(C(F)(F)F)c1 (stereo not given)", "log10 of IC50": 1.06}
{"Compound": "CC(O)(COc1cc(C(C)(C)C)cc(C(C)(C)C)c1)C(=O)Nc1ccc(C#N)c(C(F)(F)F)c1 (stereo not given)", "log10 of IC50": 0.50}
{"Compound": "C[C@](O)(CS(=O)(=O)c1ccc(F)cc1)C(=O)Nc1ccc(C#N)c(C(F)(F)F)c1 [(R)-BICALUTAMIDE]", "log10 of IC50": 1.66}

====

Experiment: Antiproliferative activity against human DU145 cells assessed as reduction in cell viability after 96 hrs by propidium iodide staining based fluorescence assay
Format: functional, DU-145
Conditions: Homo sapiens, DU-145, 96 h; read-out: IC50
pIC50: −log10 of the molar value.

{"Molecule": "CC1(C)C(=O)N(c2ccc([N+](=O)[O-])cc2C(F)(F)F)C(=S)N1c1cc(C(F)(F)F)cc(C(F)(F)F)c1", "pIC50": 5.00}
{"Molecule": "CC(O)(COc1cc(C(F)(F)F)cc(C(F)(F)F)c1)C(=O)Nc1ccc([N+](=O)[O-])cc1C(F)(F)F (centres undefined)", "pIC50": 4.93}
{"Molecule": "CC(O)(CSc1ccccc1OC(F)(F)F)C(=O)Nc1cc(C(F)(F)F)cc(C(F)(F)F)c1 (centres undefined)", "pIC50": 5.19}
{"Molecule": "CC(O)(CSc1cccc(OC(F)(F)F)c1)C(=O)Nc1cc(C(F)(F)F)cc(C(F)(F)F)c1 (centres undefined)", "pIC50": 5.02}

====

Test: Antiproliferative activity against human VCaP cells assessed as reduction in cell viability after 96 hrs by propidium iodide staining based fluorescence assay
Format: functional
Conditions: Homo sapiens, VCaP, 96 h; read-out: IC50
Known IC50 of a selection of compounds
Observation Type: IC50 (µM)

{"Compound": "C[C@](O)(CSc1cc(C(F)(F)F)cc(C(F)(F)F)c1)C(=O)Nc1ccc(C#N)c(C(F)(F)F)c1", "Observation Type": "IC50", "Reported": 0.84}
{"Compound": "CC(O)(CS(=O)(=O)c1cc(C(F)(F)F)cc(C(F)(F)F)c1)C(=O)Nc1ccc([N+](=O)[O-])cc1C(F)(F)F (stereo not drawn)", "Observation Type": "IC50", "Reported": 7.11}
{"Compound": "CC(O)(CS(=O)(=O)c1cccc(OC(F)(F)F)c1)C(=O)Nc1cc(C(F)(F)F)cc(C(F)(F)F)c1 (stereo not drawn)", "Observation Type": "IC50", "Reported": 9.99}
{"Compound": "CC(O)(CSc1cccc(OC(F)(F)F)c1)C(=O)Nc1cc(C(F)(F)F)cc(C(F)(F)F)c1 (stereo not drawn)", "Observation Type": "IC50", "Reported": 9.29}
{"Compound": "CC(O)(CSc1cc(C(F)(F)F)cc(C(F)(F)F)c1)C(=O)Nc1ccc(C(F)(F)F)cc1 (stereo not drawn)", "Observation Type": "IC50", "Reported": 9.88}
{"Compound": "CC(O)(CSc1cc(C(F)(F)F)cc(C(F)(F)F)c1)C(=O)Nc1ccc(C#N)c(C(F)(F)F)c1 (stereo not drawn)", "Observation Type": "IC50", "Reported": 2.73}
{"Compound": "CC(O)(COc1cc(C(F)(F)F)cc(C(F)(F)F)c1)C(=O)Nc1ccc(C#N)c(C(F)(F)F)c1 (stereo not drawn)", "Observation Type": "IC50", "Reported": 2.47}
{"Compound": "CNC(=O)c1ccc(N2C(=S)N(c3ccc(C#N)c(C(F)(F)F)c3)C(=O)C2(C)C)cc1F [ENZALUTAMIDE]", "Observation Type": "IC50", "Reported": 53}

Values from ChEMBL document CHEMBL3826911
